Assay: CARIV-A-001 Part A: single ascending IV doses over 20 minutes in healthy subjects
Assay type: in vivo, human
Conditions: both sexes, human, plasma and urine, iv, 3.5 mg/kg, IV over 20 minutes, 3.5 mg/kg; read-out: Renal Clearance (RCl), Mean
propertyLabel: CL renal (mL/min/kg)
// return numeric value only (unit: mL/min/kg, not printed)

# input compound: NC(=O)N[C@@H](CCC(=O)O)C(=O)O [carglumic acid, N-carbamoyl-L-glutamic acid] ; wanted: its CL renal
4.33

###

Assay: CARIV-A-001 Part B: cross-over IV infusion over 2 hours vs oral tablet 100 mg/kg in healthy subjects
Type: in vivo, human
Conditions: both sexes, human, plasma, iv, 12 mg/kg, IV, 12 mg/kg, N 2; read-out: CL, Mean (converted)
propertyLabel: clearance (mL/min/kg)
The reply should contain only the number, in mL/min/kg.

Recorded clearance of NC(=O)N[C@@H](CCC(=O)O)C(=O)O , please.
3.82

###

Experiment: CARIV-A-001 Part A: single ascending IV doses over 20 minutes in healthy subjects
Assay type: in vivo, human
Conditions: both sexes, human, plasma, iv, 3.5 mg/kg, IV over 20 minutes, 3.5 mg/kg; read-out: Cmax, Range
propertyLabel: Cmax

Looking for the measured Cmax of NC(=O)N[C@@H](CCC(=O)O)C(=O)O , can you help?
10700 to 12300 ng/mL

###

Test: Nonclinical safety study in rats: exposure
Conditions: rat, in vivo, read-out: AUC, exposure previously observed
propertyLabel: AUC
Kindly write the number and append the unit.

Quick check: AUC of NC(=O)N[C@@H](CCC(=O)O)C(=O)O ?
258 µg·h/mL

###

Experiment: clinical
Conditions: both sexes, human, in vivo, iv, Renal Clearance, Mean
propertyLabel: CL renal (mL/min/kg)
Answer in mL/min/kg, number only, no unit symbol.

Fill in: CL renal of NC(=O)N[C@@H](CCC(=O)O)C(=O)O is ___
4.83

###

Experiment: CARIV-A-001 Part A: single ascending IV doses over 20 minutes in healthy subjects
Type: in vivo, human
Details: both sexes, human, plasma and urine, iv, after IV administration; read-out: Renal clearance, range
propertyLabel: CL renal

Data request, read-out CL renal, for NC(=O)N[C@@H](CCC(=O)O)C(=O)O
183 to 467 mL/min

###

Assay: CARIV-A-001 Part A: single ascending IV doses over 20 minutes in healthy subjects
Assay type: in vivo, human
Conditions: both sexes, human, plasma and urine, iv, 7.5 mg/kg, IV over 20 minutes, 7.5 mg/kg; read-out: Renal Clearance (RCl), Median
propertyLabel: CL renal (mL/min/kg)
Kindly provide the numeric value in mL/min/kg only, without the unit symbol.

State the recorded CL renal for this entry: NC(=O)N[C@@H](CCC(=O)O)C(=O)O
4.17

###

Assay: CARIV-A-001 Part A: single ascending IV doses over 20 minutes in healthy subjects
Format: in vivo, human
Settings: both sexes, human, plasma, iv, 3.5 mg/kg, IV over 20 minutes, 3.5 mg/kg; read-out: T1/2, Median
propertyLabel: half-life
State the result as a value with its unit after it.

# get_value(readout='half-life', item= NC(=O)N[C@@H](CCC(=O)O)C(=O)O )
1270 min

###

Assay: CARIV-A-001 Part A: single ascending IV doses over 20 minutes in healthy subjects
Format: in vivo, human
Details: both sexes, human, plasma, iv, 5 mg/kg, IV over 20 minutes, 5.0 mg/kg; read-out: Cmax, Mean
propertyLabel: Cmax (ng/mL)
All answers are understood in ng/mL, so give the number only.

Value lookup for Cmax; key = NC(=O)N[C@@H](CCC(=O)O)C(=O)O
15000

###

Experiment: CARIV-A-001 Part B: cross-over IV infusion over 2 hours vs oral tablet 100 mg/kg in healthy subjects
Format: in vivo, human
Details: both sexes, human, plasma, iv, 12 mg/kg, IV, 12 mg/kg, N 2; read-out: HL (Half-life), Mean (converted)
propertyLabel: half-life (h)
Number in h, nothing else.

Looking for the measured half-life of NC(=O)N[C@@H](CCC(=O)O)C(=O)O , can you help?
34.9

###

Experiment: clinical
Settings: both sexes, human, in vivo, iv, Renal Clearance, Median
propertyLabel: CL renal (L/h/kg)
Answer format: numeric, L/h/kg implied, no suffix.

GET /values?readout=CL renal&item= NC(=O)N[C@@H](CCC(=O)O)C(=O)O
0.299

###

Experiment: CARIV-A-001 Part B: cross-over IV infusion over 2 hours vs oral tablet 100 mg/kg in healthy subjects
Format: in vivo, human
Settings: both sexes, human, plasma, iv, after IV administration; read-out: Total clearance (converted)
propertyLabel: clearance (mL/min/kg)
I only need the number, in mL/min/kg, no unit after it.

Suppose we examine the compound NC(=O)N[C@@H](CCC(=O)O)C(=O)O [carglumic acid, N-carbamoyl-L-glutamic acid] ; what clearance value has been reported?
5.17

###

Test: CARIV-A-001 Part A: single ascending IV doses over 20 minutes in healthy subjects
Type: in vivo, human
Details: both sexes, human, plasma, iv, IV over 20 minutes, each cohort; read-out: Half-life, range of cohort means
propertyLabel: half-life

Return reported half-life; argument: NC(=O)N[C@@H](CCC(=O)O)C(=O)O [carglumic acid, N-carbamoyl-L-glutamic acid]
1240 to 1490 min
